Reported inhibition at 100 µg/mL values follow for various compounds
test system: TMV; test: Anti-TMV activity on tobacco, induction mode (systemic acquired resistance); assay type: in vivo, tobacco mosaic virus; settings: Tobacco mosaic virus, 100 μg/mL, read-out: Anti-TMV activity inhibition, Induction effect

[
  {
    "compound": "CO/N=C(/C(=O)NCC(F)F)c1ccccc1CO/N=C(C)/C=C/c1snc(Cl)c1Cl [CL04-32A]",
    "targetOrTestSystem": "TMV",
    "operator": ">",
    "inhibition at 100 µg/mL [%]": 30
  },
  {
    "compound": "CO/N=C(/C(=O)NC(C)(C)CSC)c1ccccc1CO/N=C(C)/C=C/c1snc(Cl)c1Cl [CL04-32E]",
    "targetOrTestSystem": "TMV",
    "operator": ">",
    "inhibition at 100 µg/mL [%]": 70
  },
  {
    "compound": "CO/N=C(/C(=O)NC(C)(C)CSC)c1ccccc1CO/N=C(\\C)c1snc(Cl)c1Cl [CL04-22E]",
    "targetOrTestSystem": "TMV",
    "operator": "=",
    "inhibition at 100 µg/mL [%]": 12.7
  },
  {
    "compound": "CO/N=C(/C(=O)N[C@@H](C)CSC)c1ccccc1CO/N=C(\\N)c1snc(Cl)c1Cl [CL04-25E]",
    "targetOrTestSystem": "TMV",
    "operator": "=",
    "inhibition at 100 µg/mL [%]": 16
  },
  {
    "compound": "Nc1ccc(S(=O)(=O)Nc2nccs2)cc1 [SZG-7, reference compound]",
    "targetOrTestSystem": "TMV",
    "operator": "=",
    "inhibition at 100 µg/mL [%]": 79
  },
  {
    "compound": "Cc1ccc(NC(=O)c2snnc2C)cc1Cl [TDL, Tiadinil, reference compound]",
    "targetOrTestSystem": "TMV",
    "operator": "=",
    "inhibition at 100 µg/mL [%]": 65
  },
  {
    "compound": "CNC(=O)/C(=N/OC)c1cc(C)c(C)cc1CO/N=C(\\C)c1cc(Cl)ns1 [CL04-00, reference compound]",
    "targetOrTestSystem": "TMV",
    "operator": "=",
    "inhibition at 100 µg/mL [%]": 20.3
  },
  {
    "compound": "CO/N=C(/C(=O)NCC(F)F)c1ccccc1CO/N=C(\\N)c1snc(Cl)c1Cl [CL04-24]",
    "targetOrTestSystem": "TMV",
    "operator": ">",
    "inhibition at 100 µg/mL [%]": 30
  }
]

---

test system: Cercospora arachidicola; experiment: Fungicide activity, mycelial growth inhibition on PDA plate; format: cell-based; details: Mycosphaerella arachidis, 50 μg/mL, C. arachidicola; read-out: Fungicidal activity inhibition, CA
valueKind: inhibition at 50 µg/mL (%)

[
  {
    "compound": "CO/N=C(/C(=O)N[C@@H](C)CSC)c1ccccc1CO/N=C(\\N)c1snc(Cl)c1Cl [CL04-25E]",
    "valueKind": "inhibition at 50 µg/mL",
    "unitString": "%",
    "measurement": 16.7
  },
  {
    "compound": "CO/C=C(/C(=O)OC)c1ccccc1CO/N=C/c1snc(Cl)c1Cl",
    "valueKind": "inhibition at 50 µg/mL",
    "unitString": "%",
    "measurement": 66.7
  },
  {
    "compound": "C#CCNC(=O)/C(=N/OC)c1ccccc1CO/N=C(C)/C=C/c1snc(Cl)c1Cl [CL04-32B]",
    "valueKind": "inhibition at 50 µg/mL",
    "unitString": "%",
    "measurement": 52
  },
  {
    "compound": "CO/C=C(/C(=O)OC)c1ccccc1CO/N=C(C)/C=C/c1snc(Cl)c1Cl",
    "valueKind": "inhibition at 50 µg/mL",
    "unitString": "%",
    "measurement": 50
  },
  {
    "compound": "CNC(=O)/C(=N/OC)c1ccccc1CO/N=C(C)/C=C/c1snc(Cl)c1Cl [CL04-32D]",
    "valueKind": "inhibition at 50 µg/mL",
    "unitString": "%",
    "measurement": 84
  },
  {
    "compound": "CO/N=C(/C(=O)NC1CC1)c1ccccc1CO/N=C(C)/C=C/c1snc(Cl)c1Cl [CL04-32C]",
    "valueKind": "inhibition at 50 µg/mL",
    "unitString": "%",
    "measurement": 60
  },
  {
    "compound": "CO/N=C(/C(=O)OC)c1ccccc1CO/N=C/c1snc(Cl)c1Cl [CL04-15B]",
    "valueKind": "inhibition at 50 µg/mL",
    "unitString": "%",
    "measurement": 91.7
  },
  {
    "compound": "CO/N=C(/C(=O)OC)c1ccccc1CO/N=C(\\C)c1snc(Cl)c1Cl [CL04-15A]",
    "valueKind": "inhibition at 50 µg/mL",
    "unitString": "%",
    "measurement": 50
  },
  {
    "compound": "CO/N=C(/C(=O)NC1CC1)c1ccccc1CO/N=C(\\C)c1snc(Cl)c1Cl [CL04-22C]",
    "valueKind": "inhibition at 50 µg/mL",
    "unitString": "%",
    "measurement": 44
  },
  {
    "compound": "CO/C=C(/C(=O)OC)c1ccccc1CO/N=C(\\N)c1snc(Cl)c1Cl",
    "valueKind": "inhibition at 50 µg/mL",
    "unitString": "%",
    "measurement": 100
  },
  {
    "compound": "CO/N=C(/C(=O)OC)c1ccccc1CO/N=C(C)/C=C/c1snc(Cl)c1Cl",
    "valueKind": "inhibition at 50 µg/mL",
    "unitString": "%",
    "measurement": 50
  },
  {
    "compound": "CO/N=C(/C(=O)NCC(F)F)c1ccccc1CO/N=C(\\N)c1snc(Cl)c1Cl",
    "valueKind": "inhibition at 50 µg/mL",
    "unitString": "%",
    "measurement": 16.7
  },
  {
    "compound": "CO/N=C(/C(=O)NC(C)(C)CSC)c1ccccc1CO/N=C(\\C)c1snc(Cl)c1Cl [CL04-22E]",
    "valueKind": "inhibition at 50 µg/mL",
    "unitString": "%",
    "measurement": 45.8
  },
  {
    "compound": "CO/N=C(/C(=O)NC1CC1)c1ccccc1CO/N=C(\\N)c1snc(Cl)c1Cl [CL04-25B]",
    "valueKind": "inhibition at 50 µg/mL",
    "unitString": "%",
    "measurement": 28
  },
  {
    "compound": "CO/N=C(/C(=O)N[C@H](C)CSC)c1ccccc1CO/N=C(C)/C=C/c1snc(Cl)c1Cl [CL04-32F]",
    "valueKind": "inhibition at 50 µg/mL",
    "unitString": "%",
    "measurement": 12.5
  },
  {
    "compound": "CO/N=C(/C(=O)NCC(F)F)c1ccccc1CO/N=C(\\C)c1snc(Cl)c1Cl [CL04-22A]",
    "valueKind": "inhibition at 50 µg/mL",
    "unitString": "%",
    "measurement": 42.9
  },
  {
    "compound": "CO/N=C(/C(=O)OC)c1ccccc1CO/N=C(\\N)c1snc(Cl)c1Cl [CL04-15C]",
    "valueKind": "inhibition at 50 µg/mL",
    "unitString": "%",
    "measurement": 75
  },
  {
    "compound": "C#CCNC(=O)/C(=N/OC)c1ccccc1CO/N=C(\\N)c1snc(Cl)c1Cl [CL04-25A]",
    "valueKind": "inhibition at 50 µg/mL",
    "unitString": "%",
    "measurement": 20
  }
]
